These records show IC50 for C. parvum PI(4)K (Cryptosporidium parvum, UniProt Q5CVD3).

Input: // query IC50 value for entry `CNC(=O)c1ccc(-c2cnn3cnc(C(=O)N(C)c4ccc(Cl)c(C(=O)OC)c4)cc23)cc1`
Output: < 100 nM

Input: // query IC50 value for entry `CC(C)OC(=O)c1cc(N(C)C(=O)c2ccn3ncc(-c4ccc(C(N)=O)cc4)c3c2)ccc1Cl`
Output: < 100 nM

Input: // query IC50 value for entry `CNC(=O)c1ccc(-c2cnn3ccc(C(=O)N(C)c4ccc(Cl)c(C(=O)OC)c4)cc23)cc1C`
Output: 100 to 1000 nM

Input: // query IC50 value for entry `CN(C(=O)c1ccn2ncc(-c3ccc(C(N)=O)cc3)c2c1)c1ccc(Cl)c(C(=O)OCCN2CCOCC2)c1`
Output: < 100 nM

Input: // query IC50 value for entry `CCOC(=O)c1cc(N(C)C(=O)c2ccn3ncc(-c4ccc(C(N)=O)cc4)c3c2)ccc1Cl`
Output: < 100 nM

Input: // query IC50 value for entry `CNC(=O)c1ccc(-c2cnn3ccc(C(=O)Nc4ccc(Cl)c(C(=O)OC)c4)cc23)cc1`
Output: > 1000 nM

Input: // query IC50 value for entry `CC(C)COC(=O)c1cc(N(C)C(=O)c2ccn3ncc(-c4ccc(C(N)=O)cc4)c3c2)ccc1Cl`
Output: < 100 nM

====

These records show IC50 for H.s. PI(4)K (Homo sapiens, UniProt Q9UBF8).

Input: // query IC50 value for entry CNC(=O)c1ccc(-c2cnn3ccc(C(=O)N(C)c4ccc(Cl)c(C(=O)OCCN5CCOCC5)c4)cc23)cc1 [Example 1.19]
Output: 100 to 1000 nM

Input: // query IC50 value for entry CN(C(=O)c1ccn2ncc(-c3ccc(C(N)=O)cc3)c2c1)c1ccc(Cl)c(C(=O)OCCN2CCOCC2)c1 [Example 1.08]
Output: > 1000 nM

Input: // query IC50 value for entry COC(=O)c1cc(NC(=O)c2ccn3ncc(-c4ccc(C(N)=O)cc4)c3c2)ccc1Cl [Example 1.23]
Output: > 1000 nM

Input: // query IC50 value for entry COC(=O)c1cc(N(C)C(=O)c2ccn3ncc(-c4ccc(C(N)=O)cc4)c3c2)ccc1OC(F)(F)F [Example 1.25]
Output: > 1000 nM

Input: // query IC50 value for entry CCOC(=O)OC(C)OC(=O)c1cc(N(C)C(=O)c2ccn3ncc(-c4ccc(C(N)=O)cc4)c3c2)ccc1Cl (racemic) [Example 1.14]
Output: > 1000 nM

Input: // query IC50 value for entry COC(=O)c1cc(N(C)C(=O)c2ccn3ncc(-c4ccc(C(N)=O)cc4)c3c2)ccc1C#N [Example 1.27]
Output: > 1000 nM

Input: // query IC50 value for entry CNC(=O)c1ccc(-c2cnn3ccc(C(=O)N(C)c4ccc(Cl)c(C(=O)OC)c4)cc23)cc1C [Example 1.22]
Output: > 1000 nM

Input: // query IC50 value for entry CNC(=O)c1ccc(-c2cnn3ccc(C(=O)N(C)c4ccc(Cl)c(C(=O)OC)c4)cc23)cc1 [Example 1.16]
Output: 100 to 1000 nM

Input: // query IC50 value for entry CNC(=O)c1ccc(-c2cnc3cnc(C(=O)N(C)c4ccc(Cl)c(C(=O)OC)c4)cn23)cc1 [Example 2.1]
Output: > 1000 nM

Input: // query IC50 value for entry CNC(=O)c1ccc(-c2cnn3ccc(C(=O)N(C)c4ccc(Cl)c(C(=O)O)c4)cc23)cc1 [Example 1.18]
Output: 100 to 1000 nM

Input: // query IC50 value for entry CNC(=O)c1ccc(-c2cnn3cnc(C(=O)N(C)c4ccc(Cl)c(C(=O)OC)c4)cc23)cc1 [Example 3.1]
Output: > 1000 nM

Input: // query IC50 value for entry CN(C(=O)c1ccn2ncc(-c3ccc(C(N)=O)cc3)c2c1)c1ccc(Cl)c(C(=O)O)c1 [Example 1.03]
Output: 100 to 1000 nM

Input: // query IC50 value for entry COC(=O)c1cc(N(C)C(=O)c2ccn3ncc(-c4ccc(C(N)=O)cc4)c3c2)ccc1Cl [Example 1.01]
Output: 100 to 1000 nM

Input: // query IC50 value for entry COC(=O)c1cc(N(C)C(=O)c2ccn3ncc(-c4ccc(C(N)=O)cc4C)c3c2)ccc1Cl [Example 1.21]
Output: > 1000 nM

Input: // query IC50 value for entry CNC(=O)c1ccc(-c2cnn3ccc(C(=O)Nc4ccc(Cl)c(C(=O)OC)c4)cc23)cc1 [Example 1.24]
Output: > 1000 nM

Input: // query IC50 value for entry COC(=O)c1cc(Cl)ccc1N(C)C(=O)c1ccn2ncc(-c3ccc(C(N)=O)cc3)c2c1 [Example 4.1]
Output: 100 to 1000 nM
